A collection of compounds and their measured IC50
# TEST_TARGET: MMP2 (Homo sapiens, UniProt P08253)
# Sequence (P08253 110-660): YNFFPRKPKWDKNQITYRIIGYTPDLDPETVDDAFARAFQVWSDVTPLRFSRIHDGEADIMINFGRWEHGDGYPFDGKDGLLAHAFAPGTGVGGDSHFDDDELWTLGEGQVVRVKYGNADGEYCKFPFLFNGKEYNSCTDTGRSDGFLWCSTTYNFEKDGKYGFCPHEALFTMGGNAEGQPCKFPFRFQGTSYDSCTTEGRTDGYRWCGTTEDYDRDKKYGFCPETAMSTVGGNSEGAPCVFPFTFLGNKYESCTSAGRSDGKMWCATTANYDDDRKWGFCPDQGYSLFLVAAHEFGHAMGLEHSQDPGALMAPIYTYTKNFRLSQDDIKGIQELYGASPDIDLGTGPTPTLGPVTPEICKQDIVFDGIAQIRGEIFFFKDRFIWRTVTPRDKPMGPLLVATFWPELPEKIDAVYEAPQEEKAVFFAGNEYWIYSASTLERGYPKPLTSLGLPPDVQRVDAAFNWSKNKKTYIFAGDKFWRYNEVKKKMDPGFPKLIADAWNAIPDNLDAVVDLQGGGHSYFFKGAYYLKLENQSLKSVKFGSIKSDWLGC
# PROTOCOL_DESCRIPTION: MMP-2 colorimetric inhibition assay (Enzo kit BML-AK408)
# Format: biochemical
# RECORDED_CONDITIONS: thiopeptide substrate, absorbance 415 nm; read-out: MMP 2 IC50 class

COMPOUND	IC50
COCCOC(=O)N1[C@@H]2CC[C@H]1[C@H](C(=O)NO)N(S(=O)(=O)c1cc(F)c(Oc3ccc(Cl)cc3)c(F)c1)C2 [Example 2]	0.05 to 1 µM
COCCOC(=O)N1[C@@H]2CC[C@H]1[C@H](C(=O)NO)N(S(=O)(=O)c1ccc(Oc3ccc(F)cc3)c(F)c1)C2 [Example 5]	< 0.05 µM
CCOC(=O)N1[C@@H]2CC[C@H]1[C@H](C(=O)NO)N(S(=O)(=O)N1CCC(Oc3ccnc(C(F)(F)F)c3)CC1)C2 [Example 50]	0.05 to 1 µM
COCCOC(=O)N1[C@@H]2CC[C@H]1[C@H](C(=O)NO)N(S(=O)(=O)c1ccc(Oc3cnn(C(C)C)c3)nc1)C2 [Example 37]	0.05 to 1 µM
CC(C)OC(=O)N1[C@@H]2CC[C@H]1[C@H](C(=O)NO)N(S(=O)(=O)c1ccc(Oc3ccc(F)cc3)nc1)C2 [Example 67]	< 0.05 µM
COCCOC(=O)N1[C@@H]2CC[C@H]1[C@H](C(=O)NO)N(S(=O)(=O)c1cc(F)c(Oc3cnn(C)c3)c(F)c1)C2 [Example 42]	0.05 to 1 µM
